Measured Kd accompanies every entry in the list below.
SYSTEM_TESTED: T1, wild-type human Ang-2 (hAng-2-WT) (human, UniProt O15123 19-496)
T1 construct: called full-length wild-type; also called Full-length wild-type human Ang-2
T1 sequence: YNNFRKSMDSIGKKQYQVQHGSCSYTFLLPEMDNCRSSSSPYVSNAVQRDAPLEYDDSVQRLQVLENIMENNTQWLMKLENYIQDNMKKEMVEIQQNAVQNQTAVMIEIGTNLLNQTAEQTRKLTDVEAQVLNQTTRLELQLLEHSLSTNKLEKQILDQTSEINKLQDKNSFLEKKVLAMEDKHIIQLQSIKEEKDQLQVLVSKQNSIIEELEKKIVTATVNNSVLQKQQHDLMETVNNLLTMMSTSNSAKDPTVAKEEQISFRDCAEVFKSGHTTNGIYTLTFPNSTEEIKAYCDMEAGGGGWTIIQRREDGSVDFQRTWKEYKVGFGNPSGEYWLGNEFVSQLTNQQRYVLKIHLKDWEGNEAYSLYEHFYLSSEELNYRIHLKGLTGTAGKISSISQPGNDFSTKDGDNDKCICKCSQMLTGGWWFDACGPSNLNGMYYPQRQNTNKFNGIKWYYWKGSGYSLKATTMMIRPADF
EXPERIMENT_NOTES: SPR, captured Ab
READOUT_NAME: Kd (nM)

binder="H1H706P (antibody, V domains shown) VH: QVQLVESGGGVVQPGRSLRLSCAASGFTFSSYGMHWVRQAPDKGLEWVAVKWDDGSNKYYADSVKGRFTISRDNSKNTLYLQMNSLRAEDTAVYYCAREGPYDFYSGYGAFDIWGQGTMVTVSS VL: DIQMTQSPSSLSASVGDRVTITCRASQGISNYLAWFQQKPGKAPKSLIYAASSLQSGVPSKFSGSGSGTDFTLTISSLQPEDFATYYCQQYNSYPRTFGQGTKVEIK" readout_name=Kd result_unit=nM quantitative_result=0.0274
binder="H2M743N (antibody, V domains shown) VH: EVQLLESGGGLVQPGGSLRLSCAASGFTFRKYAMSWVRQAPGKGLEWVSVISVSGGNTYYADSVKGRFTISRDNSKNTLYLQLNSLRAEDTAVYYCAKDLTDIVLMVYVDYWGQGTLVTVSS VL: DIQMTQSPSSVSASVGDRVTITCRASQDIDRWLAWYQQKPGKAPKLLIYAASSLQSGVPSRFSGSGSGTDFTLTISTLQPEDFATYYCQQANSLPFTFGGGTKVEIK" readout_name=Kd result_unit=nM quantitative_result=0.0143
binder="H1H695P (antibody, V domains shown) VH: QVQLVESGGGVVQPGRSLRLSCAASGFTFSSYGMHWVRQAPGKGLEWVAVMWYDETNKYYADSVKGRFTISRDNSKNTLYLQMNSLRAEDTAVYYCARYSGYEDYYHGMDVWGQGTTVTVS VL: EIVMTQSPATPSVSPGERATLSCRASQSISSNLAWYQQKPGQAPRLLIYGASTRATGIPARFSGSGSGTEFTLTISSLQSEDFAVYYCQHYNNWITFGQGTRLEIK" readout_name=Kd result_unit=nM quantitative_result=0.0311
binder="H1H693P (antibody, V domains shown) VH: EVQLVESGGGLVQPGESLRLSCAASGFTFSSYAMSWVRQGPGKGLEWVSSISGSGGTTYYADSVEGRFTISRDNSKNTLYLHMNSLRAEDTAVYYCAKDFLDYSTYLAFDLWGQGTMVTVSS VL: DIQMTQSPSSVSASVGDRVTITCRASQGISSWLAWYQQKPGKAPKLLIYAASSLQSGVPSRFSGSGSGTDFTLTISSLQPEDFATYYCQQANSFPRTFGQGTKVEIK" readout_name=Kd result_unit=nM quantitative_result=0.425
binder="H1H724N (antibody, V domains shown) VH: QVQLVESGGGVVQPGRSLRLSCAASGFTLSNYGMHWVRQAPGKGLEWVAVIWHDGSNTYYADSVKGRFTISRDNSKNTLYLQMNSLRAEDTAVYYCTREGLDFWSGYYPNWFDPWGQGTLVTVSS VL: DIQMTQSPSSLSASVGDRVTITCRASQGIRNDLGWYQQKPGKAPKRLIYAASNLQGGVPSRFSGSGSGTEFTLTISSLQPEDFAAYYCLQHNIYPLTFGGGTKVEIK" readout_name=Kd result_unit=nM quantitative_result=0.0226
